# protocol notes: Hepatic extraction ratio in human liver microsomes
# Assay type: ADME, microsome
# run conditions: read-out: ERH
result type: hepatic extraction ratio
Respond with the number and no other words.

Give the measured hepatic extraction ratio for `O=C(Nc1ncc(F)s1)[C@H](CC1CCOCC1)n1ncc2c(S(=O)(=O)C3CC3)cncc21`
0.59

Give the measured hepatic extraction ratio for `O=C(Nc1ncc(F)s1)[C@H](CC1CCCC1)n1cc(S(=O)(=O)C2CC2)cn1`
0.91

Give the measured hepatic extraction ratio for `O=C(Nc1ncc(Cl)s1)[C@H](CC1CCCC1)n1cc(S(=O)(=O)C2CC2)cn1`
0.91

Give the measured hepatic extraction ratio for `O=C(Nc1ncc(Cl)s1)[C@H](CC1CCOCC1)n1ncc2c(S(=O)(=O)C3CC3)cccc21`
0.67

* * *

# protocol notes: Hepatic extraction ratio in mouse liver microsomes
# Type: ADME, microsome
# run conditions: read-out: ERH
result type: hepatic extraction ratio

Give the measured hepatic extraction ratio for `O=C(Nc1ncc(F)s1)[C@H](CC1CCOCC1)n1ncc2c(S(=O)(=O)C3CC3)cncc21`
0.56

* * *

# target under test: hERG (KCNH2) (Homo sapiens, UniProt Q12809)
# Sequence (Q12809 whole entry): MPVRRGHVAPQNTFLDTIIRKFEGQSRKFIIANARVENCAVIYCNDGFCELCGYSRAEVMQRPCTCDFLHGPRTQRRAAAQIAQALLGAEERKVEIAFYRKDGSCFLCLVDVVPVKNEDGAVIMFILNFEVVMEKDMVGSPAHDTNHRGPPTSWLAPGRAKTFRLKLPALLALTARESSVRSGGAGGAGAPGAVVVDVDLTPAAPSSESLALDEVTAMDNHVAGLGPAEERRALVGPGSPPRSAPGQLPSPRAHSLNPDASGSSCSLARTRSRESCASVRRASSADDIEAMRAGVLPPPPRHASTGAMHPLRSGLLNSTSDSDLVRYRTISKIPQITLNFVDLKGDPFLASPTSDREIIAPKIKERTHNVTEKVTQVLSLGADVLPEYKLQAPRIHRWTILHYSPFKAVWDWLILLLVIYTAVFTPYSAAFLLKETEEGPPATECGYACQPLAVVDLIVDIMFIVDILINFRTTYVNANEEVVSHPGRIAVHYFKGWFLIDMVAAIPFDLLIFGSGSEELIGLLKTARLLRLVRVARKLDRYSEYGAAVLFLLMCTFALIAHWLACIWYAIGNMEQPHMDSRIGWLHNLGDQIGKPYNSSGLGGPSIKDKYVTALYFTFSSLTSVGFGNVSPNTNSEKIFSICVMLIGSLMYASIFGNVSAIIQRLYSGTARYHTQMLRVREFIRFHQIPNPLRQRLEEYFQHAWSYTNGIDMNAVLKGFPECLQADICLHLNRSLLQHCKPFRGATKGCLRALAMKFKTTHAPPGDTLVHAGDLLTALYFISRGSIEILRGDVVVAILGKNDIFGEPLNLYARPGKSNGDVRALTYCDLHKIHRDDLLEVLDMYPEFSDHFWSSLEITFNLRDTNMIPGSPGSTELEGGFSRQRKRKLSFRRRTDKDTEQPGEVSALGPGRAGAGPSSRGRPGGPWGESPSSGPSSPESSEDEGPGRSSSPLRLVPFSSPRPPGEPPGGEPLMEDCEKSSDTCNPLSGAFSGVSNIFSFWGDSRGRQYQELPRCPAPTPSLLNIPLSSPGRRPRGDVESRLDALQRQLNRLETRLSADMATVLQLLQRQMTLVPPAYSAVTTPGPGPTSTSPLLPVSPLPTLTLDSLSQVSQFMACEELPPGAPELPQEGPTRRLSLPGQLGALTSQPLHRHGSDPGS
# protocol notes: Inhibition of human ERG at 10 uM
Threshold check on inhibition at 10 µM: at or above 30% gives met, strictly below gives not met.

Identify whether the reported inhibition at 10 µM of the following compound is 30% or greater: `O=C(Nc1ncc(F)s1)[C@H](CC1CCOCC1)n1ncc2c(S(=O)(=O)C3CC3)cncc21`
met

Identify whether the reported inhibition at 10 µM of the following compound is 30% or greater: Cc1nnc(NC(=O)C(CC2CCOCC2)n2ncc3c(S(=O)(=O)C4CC4)cccc32)s1 (racemic)
not met

Identify whether the reported inhibition at 10 µM of the following compound is 30% or greater: Cn1ccc(NC(=O)C(CC2CCOCC2)n2ncc3c(S(=O)(=O)C4CC4)cccc32)n1 (racemic)
not met

Identify whether the reported inhibition at 10 µM of the following compound is 30% or greater: `COc1cc(S(=O)(=O)C2CC2)c2cnn([C@@H](CC3CCOCC3)C(=O)Nc3ncc(F)s3)c2c1`
met

Identify whether the reported inhibition at 10 µM of the following compound is 30% or greater: N#Cc1cc(S(=O)(=O)C2CC2)c2cnn(C(CC3CCOCC3)C(=O)Nc3ncc(F)s3)c2c1 (racemic)
met

Identify whether the reported inhibition at 10 µM of the following compound is 30% or greater: NC(=O)c1cnc(NC(=O)C(CC2CCOCC2)n2ncc3c(S(=O)(=O)C4CC4)cccc32)s1 (racemic)
not met

* * *

Assign %max to each entry below.
# target under test: UniProtKB P35557
# Sequence (whole entry): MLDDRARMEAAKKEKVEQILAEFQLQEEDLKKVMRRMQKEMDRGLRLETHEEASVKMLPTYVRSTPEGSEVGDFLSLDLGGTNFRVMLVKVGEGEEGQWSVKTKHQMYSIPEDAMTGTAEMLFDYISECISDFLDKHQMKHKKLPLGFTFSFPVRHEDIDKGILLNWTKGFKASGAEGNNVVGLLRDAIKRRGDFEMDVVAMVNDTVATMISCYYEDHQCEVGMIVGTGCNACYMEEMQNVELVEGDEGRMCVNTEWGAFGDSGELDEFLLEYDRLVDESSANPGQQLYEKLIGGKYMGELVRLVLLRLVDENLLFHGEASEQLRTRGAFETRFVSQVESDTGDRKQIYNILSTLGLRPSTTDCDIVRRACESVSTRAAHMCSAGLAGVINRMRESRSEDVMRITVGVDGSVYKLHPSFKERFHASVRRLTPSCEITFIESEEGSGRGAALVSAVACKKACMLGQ
# protocol notes: Activation of full length human C-terminal FLAG-tagged glucokinase (12 to 465 residues) expressed in Escherichia coli DH10b using glucose as substrate after 60 mins in presence of ATP by kinase-glo luminescence assay relative to control
Give the quantity in %, number only.

Give the measured %max for `O=C(Nc1ncc(Cl)s1)[C@H](CC1CCOCC1)n1ncc2cc(S(=O)(=O)C3CC3)ccc21`
26

Give the measured %max for O=C(Nc1ncc(Cl)s1)C(CC1CCOCC1)n1ncc2ccc(S(=O)(=O)C3CC3)cc21 (racemic)
0

Give the measured %max for CC(C)(C)S(=O)(=O)c1cnn(C(CC2CCOCC2)C(=O)Nc2ncc(F)s2)c1 (racemic)
0

Give the measured %max for `O=C(Nc1ncc(Cl)s1)[C@H](CC1CCOCC1)n1cc(S(=O)(=O)C2CCCC2)cn1`
32

Give the measured %max for `O=C(Nc1ncc(Cl)s1)[C@H](CC1CCOCC1)n1ncc2c(S(=O)(=O)C3CC3)cccc21`
65

* * *

# protocol notes: Half life in orally dosed rat
# Type: ADME, organism-based
# run conditions: in vivo, po
result type: half-life (h)
Give the quantity in h, number only.

Give the measured half-life for `O=C(Nc1ncc(F)s1)[C@H](CC1CCOCC1)n1ncc2c(S(=O)(=O)C3CC3)cncc21`
4.3
